B1: TPR t1 (parent)
chain: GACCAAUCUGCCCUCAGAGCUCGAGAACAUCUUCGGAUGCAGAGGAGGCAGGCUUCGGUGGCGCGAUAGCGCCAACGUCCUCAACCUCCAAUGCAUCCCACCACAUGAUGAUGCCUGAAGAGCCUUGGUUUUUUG

Variants of: B1
Experiment: polymerase ribozyme fitness, log enrichment relative to wild type (log ratio); higher = more active; in vitro selection for triplet polymerase activity
In this scheme, each record receives a class according to its polymerase ribozyme fitness (log ratio); the ranges are lo: < -4; mid: ≥ -4 and < -2; hi: ≥ -2

residue-change	class-assignment
A5G C88G	hi
G61U C72U U131A	hi
G71C U92C	mid
G17C G61U	mid
C3U G39C G44A G63A G77U U78A A119G	mid
G113A G128C	mid
A108U U129A	lo
G47C C70U U78A	hi
G57U U87A A90C C101U C114U U125A	lo
U21G C123G	hi
G48C C49G	hi
G47A U87C U112A	hi
C40U C62G G127C	mid
G47U G48U C56A C73A A118G	mid
C8G G71C	hi
C22U A41U C73U C82G A83U C124U	lo
A74U C94U	hi
A27U C40U C72G A100C	lo
C4U C15U A43U A46U	mid
C22G C34A G52C	lo
C20U A105U	mid

Sourced from the RNAGym collection of RNA variant scans (doi:10.1073/pnas.2313332121)
